Tested on: Plasma
PROCEDURE_TEXT: Inhibition of 10.0 ug/mL collagen-induced platelet aggregation in human platelet rich plasma
Assay type: functional
The following compounds are shown together with reported IC50 values.
Give your result in µM as a bare value.

O=c1cc(N2CCNCC2)oc2ccccc12 :: 60

Recorded IC50 of O=c1cc(N2CCNCC2)c2ccccc2o1 , please. 36
